System under test: Substance-K receptor (Homo sapiens, UniProt P21452)
Sequence (P21452 whole entry): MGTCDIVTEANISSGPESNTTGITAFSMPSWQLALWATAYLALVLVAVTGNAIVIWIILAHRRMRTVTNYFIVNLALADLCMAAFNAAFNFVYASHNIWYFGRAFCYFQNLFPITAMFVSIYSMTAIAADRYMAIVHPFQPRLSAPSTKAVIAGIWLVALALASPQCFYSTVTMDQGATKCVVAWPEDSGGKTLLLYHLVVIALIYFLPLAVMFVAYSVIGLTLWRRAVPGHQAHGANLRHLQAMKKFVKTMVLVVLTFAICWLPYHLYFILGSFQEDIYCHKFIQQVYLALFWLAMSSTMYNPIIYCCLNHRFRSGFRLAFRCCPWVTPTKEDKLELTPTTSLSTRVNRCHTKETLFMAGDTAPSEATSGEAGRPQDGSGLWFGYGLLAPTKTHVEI
Measurement notes: Binding affinity test against Neurokinin 2 (NK2) receptor
Measurement name: log10 Ki (log10 of the value in nM)

- CO/N=C(\COCc1ccccn1)C(CCN1CCC(O)(c2ccccc2)CC1)c1ccc(Cl)c(Cl)c1 (stereo unspecified): 1.63
- CO/N=C(\CN(C)C(=O)c1cc(OC)c(OC)c(OC)c1)C(CCN1CCC(O)(c2ccccc2)CC1)c1ccc(Cl)c(Cl)c1 (stereo unspecified): 0.48
- CO/N=C(\COCc1ccc(C(C)(C)C)cc1)C(CCN1CCC(O)(c2ccccc2)CC1)c1ccc(Cl)c(Cl)c1 (stereo unspecified): 0.60
- CO/N=C(\CN(C)C(=O)c1cc(C)nc(-c2cccs2)c1)C(CCN1CCC(O)(c2ccccc2)CC1)c1ccc(Cl)c(Cl)c1 (stereo unspecified): 0.78
- CO/N=C(\COCc1cc(OC)cc(OC)c1)C(CCN1CCC(O)(c2ccccc2)CC1)c1ccc(Cl)c(Cl)c1 (stereo unspecified): 1.26
- CO/N=C(\CN(C)C(=O)c1ccccc1OC)C(CCN1CCC(O)(c2ccccc2)CC1)c1ccc(Cl)c(Cl)c1 (stereo unspecified): 0.60
